- Tested on: MS2 coat protein
- protocolDetails: apparent KD of MS2 coat protein; designed switch direction (-1 OFF switch, 1 ON switch): -1; higher = weaker reporter binding
- experimentalParameters: input ligand: none
apparent KD of MS2 coat protein listing for selected sequences.

{"polymerSequence": "CCUCAUGGGCAGGAUAUCAGUCGAAAGUUUAUAUGAGAAGGGCCAACAUGAGGAUCACCCAUGUAAUCCCUGAC [EX6 C.14] (Eterna round: R97, puzzle: Exclusion 6)", "testedOn": "MS2 coat protein", "apparent KD of MS2 coat protein, nM": 27.8}
{"polymerSequence": "CUGAGUAGUCAGGAUAUGUGGUACAAAAGUACUGCAGAAGGGAUUACAUGAGGAUCACCCAUGUUAUCUUCAUG [Omei Ex6 B19] (Eterna round: R97, puzzle: Exclusion 6)", "testedOn": "MS2 coat protein", "apparent KD of MS2 coat protein, nM": 144}
{"polymerSequence": "CUACUAGAGACGCGUGGGAACAUGAGGAUCACCCAUGUCAAUGGAGUUUAAACAGGCCCGUCGUUUUGCUCGUCGUG [Eternabot (L2) Solution 41] (Eterna round: R97, puzzle: Sensor, turn-off variant 1)", "testedOn": "MS2 coat protein", "apparent KD of MS2 coat protein, nM": 132}
